tested on: DMS 273 small cell lung; experiment: NCI tumour cell line growth inhibition, 48 h
Documented TGI across a set of compounds
RESULT TYPE: TGI

{"columns": ["COMPOUND", "SYSTEM UNDER TEST", "RESULT TYPE", "DATA VALUE"],
 "data": [
  ["C=C1C(=O)C23C(O)CC4C(C)(C)CCC(O)C4(C)C2CC(OC(C)=O)C1[C@H]3O (some centres undefined)", "DMS 273 small cell lung", "TGI", "3.79 µM"],
  ["Nc1ncc(CN2CCCC2)c(-c2ccccc2O)n1", "DMS 273 small cell lung", "TGI", "> 750 µM"],
  ["C#Cc1c(C)c(/C=C/C(C)=C\\C(=O)OC)n(C)c1C", "DMS 273 small cell lung", "TGI", "> 100 µM"],
  ["CN1C/C(=C\\c2ccccc2)C2=NN(C(N)=S)[C@H](c3ccccc3)[C@@H]2C1", "DMS 273 small cell lung", "TGI", "> 100 µM"]
]}
